- target: Cell division control protein 42 homolog (Homo sapiens) (UniProt P60953)
- Sequence (P60953 whole entry, looked up): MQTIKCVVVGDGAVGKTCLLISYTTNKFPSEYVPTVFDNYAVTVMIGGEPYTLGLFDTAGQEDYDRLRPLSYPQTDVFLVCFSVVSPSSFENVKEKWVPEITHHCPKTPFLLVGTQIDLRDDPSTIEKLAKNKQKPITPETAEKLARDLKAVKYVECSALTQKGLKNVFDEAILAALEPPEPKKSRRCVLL
- experimentDescription: wild-type Cdc42 fluorescent nucleotide binding blockers – biochemical, wildtype, bead multiplex, flow cytometry, round 2, SAR follow-up (AID 588626)
- conditionLabel: Bead-based flow cytometry, Bodipy-FL-GTP binding, EDTA buffer
In this section we review reported pEC50 values for a set of compounds.
Scale: pEC50 equals -log10([C]), with [C] in mol/L.

Before answering, review these 7 worked examples.
response.value for CC(C)(C)C1Cc2c(sc(NC(=S)NC(=O)c3ccccc3)c2C(=O)O)CO1 (stereo not drawn) (field: pEC50) = 5.80

response.value for `Cc1ccc(C(=O)NC(=S)Nc2sc3c(c2C(=O)O)CC(C)(C)OC3)cc1` (field: pEC50) = 6.28

response.value for `CC1(C)Cc2c(sc(NC(=S)NC(=O)c3ccccc3F)c2C(=O)O)CO1` (field: pEC50) = 5.13

response.value for CC1Cc2c(sc(NC(=S)NC(=O)c3ccccc3)c2C(=O)O)CO1 (stereo not drawn) (field: pEC50) = 4.75

response.value for `CC1(C)Cc2c(sc(NC(=S)NC(=O)c3cccc(Br)c3)c2C(=O)O)CO1` (field: pEC50) = 4.71

response.value for `Cc1cccc(C(=O)NC(=S)Nc2sc3c(c2C(=O)O)CC(C)(C)OC3)c1` (field: pEC50) = 5.23

response.value for `CC1(C)Cc2c(sc(NC(=S)NC(=O)C3CCCCC3)c2C(=O)O)CO1` (field: pEC50) = 5.58

In the following, a different compound is considered.
response.value for `Cc1ccccc1C(=O)NC(=S)Nc1sc2c(c1C(=O)O)CC(C)(C)OC2` (field: pEC50) = 5.57

Origin of the recorded values: PubChem BioAssay AID588626
